TARGET_ENTITY: cloned hTRPM8 channel (Homo sapiens, UniProt Q7Z2W7)
Construct: host or cells: CHO cells
Sequence (Q7Z2W7 whole entry): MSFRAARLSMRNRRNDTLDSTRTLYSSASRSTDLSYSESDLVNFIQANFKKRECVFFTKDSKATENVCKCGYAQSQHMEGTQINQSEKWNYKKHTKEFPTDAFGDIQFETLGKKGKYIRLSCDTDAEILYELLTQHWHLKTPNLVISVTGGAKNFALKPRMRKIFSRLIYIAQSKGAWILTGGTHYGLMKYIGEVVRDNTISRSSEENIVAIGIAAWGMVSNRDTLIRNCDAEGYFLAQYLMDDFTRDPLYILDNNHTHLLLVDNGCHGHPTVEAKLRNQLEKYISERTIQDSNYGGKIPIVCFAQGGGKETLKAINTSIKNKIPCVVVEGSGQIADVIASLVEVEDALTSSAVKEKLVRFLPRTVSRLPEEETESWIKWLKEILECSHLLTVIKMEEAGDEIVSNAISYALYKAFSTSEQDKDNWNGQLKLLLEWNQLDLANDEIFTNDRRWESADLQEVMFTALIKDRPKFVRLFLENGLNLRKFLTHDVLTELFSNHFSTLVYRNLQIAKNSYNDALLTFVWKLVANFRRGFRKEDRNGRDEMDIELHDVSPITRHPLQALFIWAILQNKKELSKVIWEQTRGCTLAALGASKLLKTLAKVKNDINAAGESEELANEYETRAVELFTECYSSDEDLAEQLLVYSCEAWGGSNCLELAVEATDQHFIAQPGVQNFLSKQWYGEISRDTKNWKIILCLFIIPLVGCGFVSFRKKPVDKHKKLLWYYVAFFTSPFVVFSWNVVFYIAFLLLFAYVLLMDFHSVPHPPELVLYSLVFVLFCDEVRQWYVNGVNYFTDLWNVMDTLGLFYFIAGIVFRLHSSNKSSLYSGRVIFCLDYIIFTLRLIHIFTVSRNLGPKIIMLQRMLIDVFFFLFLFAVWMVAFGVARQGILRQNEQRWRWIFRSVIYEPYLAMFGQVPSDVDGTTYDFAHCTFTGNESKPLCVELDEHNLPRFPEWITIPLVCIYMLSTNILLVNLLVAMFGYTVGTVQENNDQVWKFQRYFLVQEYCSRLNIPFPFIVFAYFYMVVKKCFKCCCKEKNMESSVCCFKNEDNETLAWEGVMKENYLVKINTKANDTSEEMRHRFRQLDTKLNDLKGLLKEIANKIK
PROTOCOL: TRPM8 activation, FLIPR calcium assay in CHO cells
Format: cell-based
CONDITION_CONTEXT: TRPM8 EC50 relative to I-menthol
MEASURED_PROPERTY: Relative Potency to I-menthol

COMPOUND: CCCCCP(=O)(C(C)C)C(C)C [Code 1-5, 1-diisopropylphosphorylpentane]
Relative Potency to I-menthol: 0.7
--
COMPOUND: CCCCCCCP(=O)(C(C)C)C(C)C [Code 1-7, 1-diisopropylphosphorylheptane]
Relative Potency to I-menthol: 5.4
--
COMPOUND: CCCCCCP(=O)(C(C)CC)C(C)CC (stereo not shown) [Code 2-6, 1-disec-butylphosphorylhexane]
Relative Potency to I-menthol: 4.7
--
COMPOUND: CCCCCCCCCP(=O)(C(C)C)C(C)C [Code 1-9, 1-diisopropylphosphorylnonane]
Relative Potency to I-menthol: 4.0
--
COMPOUND: CCCCCP(=O)(C(C)CC)C(C)CC (stereo not shown) [Code 2-5, 1-disec-butylphosphorylpentane]
Relative Potency to I-menthol: 2.2
--
COMPOUND: CCCCCCCCP(=O)(C(C)C)C(C)C [Code 1-8, 1-diisopropylphosphoryloctane]
Relative Potency to I-menthol: 5.4
--
COMPOUND: CCCCP(=O)(C(C)CC)C(C)CC (stereo not shown) [Code 2-4, 1-disec-butylphosphorylbutane]
Relative Potency to I-menthol: 0.3
--
COMPOUND: CCCCCCCP(=O)(C(C)CC)C(C)CC (stereo not shown) [Code 2-7, 1-disec-butylphosphorylheptane]
Relative Potency to I-menthol: 3.4

P = CCCCCCCCP(=O)(C(C)CC)C(C)CC (stereo not shown) [Code 2-8, 1-disec-butylphosphoryloctane]
Q = CCCCCCP(=O)(C(C)C)C(C)C [Code 1-6, 1-diisopropylphosphorylhexane]
In: Please let me know which one, P or Q , has a lower measured Relative Potency to I-menthol value. Please indicate the selected item by its label.
Out: Q
(Q: 1.6, P: 2.9)

* * *

Overview of reported Onset across a group of molecules:
System: zygomatic/forehead skin
PROTOCOL: Cooling sensation after application to zygomatic/forehead skin
Type: in vivo, human
CONDITION_CONTEXT: 20 mg/mL in distilled water, time to reach 2 units of coolness

MOLECULE: CCCCCP(=O)(C(C)C)C(C)C
MEASURED_PROPERTY: Onset
RESULT: ~1 min
--
MOLECULE: CCCCP(=O)(C(C)CC)C(C)CC (stereo not shown)
MEASURED_PROPERTY: Onset
RESULT: ~1 min
--
MOLECULE: CCCCCCCCP(=O)(C(C)C)C(C)C
MEASURED_PROPERTY: Onset
RESULT: ~1 min
--
MOLECULE: CCCCCCCP(=O)(C(C)C)C(C)C
MEASURED_PROPERTY: Onset
RESULT: ~1 min
--
MOLECULE: CCCCCCP(=O)(C(C)CC)C(C)CC (stereo not shown)
MEASURED_PROPERTY: Onset
RESULT: ~2 min

In: # return recorded Onset for entry CCCCCCCCP(=O)(C(C)CC)C(C)CC (stereo not shown)
Out: 5 min

In: # return recorded Onset for entry CCCCCCCP(=O)(C(C)CC)C(C)CC (stereo not shown)
Out: ~2 min

In: # return recorded Onset for entry CCCCCCP(=O)(C(C)C)C(C)C
Out: ~1 min

In: # return recorded Onset for entry CCCCCCCCCP(=O)(C(C)C)C(C)C
Out: ~2 min

In: # return recorded Onset for entry CCCCCP(=O)(C(C)CC)C(C)CC (stereo not shown)
Out: ~1 min

* * *

Test system: zygomatic/forehead skin
PROTOCOL: Cooling sensation after application to zygomatic/forehead skin
Assay type: in vivo, human
CONDITION_CONTEXT: 20 mg/mL in distilled water
MEASURED_PROPERTY: Sensory Quality

Example cases with answers are listed next.
MOLECULE: CCCCCCCCCP(=O)(C(C)C)C(C)C
Sensory Quality: cool
--
MOLECULE: CCCCCCP(=O)(C(C)C)C(C)C
Sensory Quality: dynamic
--
MOLECULE: CCCCCP(=O)(C(C)C)C(C)C
Sensory Quality: dynamic
--
MOLECULE: CCCCCP(=O)(C(C)CC)C(C)CC (stereo not shown)
Sensory Quality: cool
--
MOLECULE: CCCCCCCCP(=O)(C(C)CC)C(C)CC (stereo not shown)
Sensory Quality: cold
--
MOLECULE: CCCCP(=O)(C(C)CC)C(C)CC (stereo not shown)
Sensory Quality: cool
--
MOLECULE: CCCCCCCP(=O)(C(C)CC)C(C)CC (stereo not shown)
Sensory Quality: cold

Now for the molecule whose Sensory Quality we want.
In: # return recorded Sensory Quality for entry CCCCCCP(=O)(C(C)CC)C(C)CC (stereo not shown)
Out: cold

The values you see were collected from patent US9822136B2.
